# target_entity: Muscarinic acetylcholine receptor M1 (Rattus norvegicus)
# Sequence (whole entry): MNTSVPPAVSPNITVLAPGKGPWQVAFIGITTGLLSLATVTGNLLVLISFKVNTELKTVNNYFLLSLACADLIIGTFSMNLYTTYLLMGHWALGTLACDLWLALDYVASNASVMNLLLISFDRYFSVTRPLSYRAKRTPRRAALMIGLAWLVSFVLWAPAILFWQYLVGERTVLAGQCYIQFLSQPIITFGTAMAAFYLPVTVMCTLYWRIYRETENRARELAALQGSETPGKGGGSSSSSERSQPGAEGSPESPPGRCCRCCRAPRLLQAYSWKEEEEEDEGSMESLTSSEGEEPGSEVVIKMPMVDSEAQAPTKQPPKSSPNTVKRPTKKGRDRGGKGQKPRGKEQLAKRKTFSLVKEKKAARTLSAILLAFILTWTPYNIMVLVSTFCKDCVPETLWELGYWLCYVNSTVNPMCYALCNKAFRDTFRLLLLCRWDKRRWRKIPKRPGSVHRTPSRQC
# test_method_notes: Binding affinity for Muscarinic acetylcholine receptor M1 from rat striatum, using [3H]quinuclidinyl benzilate as radioligand at 10 uM.
measured_endpoint: inhibition
I'd appreciate it if you wrote the number followed by its unit.

(Q) What value of inhibition has been recorded for this entry: CN(C)CCC/C=C1/c2ccccc2COc2ccc(CC(=O)O)cc21
(A) 2%

(Q) And CN(C)CCC/C=C1/c2ccccc2COc2ccc(C(=O)O)cc21 ?
(A) 2%

(Q) And CN(C)CC/C=C1/c2ccccc2COc2ccc(CC(=O)O)cc21.Cl [OLOPATADINE HYDROCHLORIDE] ?
(A) 3%

(Q) And CCN(CC)CC/C=C1/c2ccccc2COc2ccc(C(=O)O)cc21.O=C(O)/C=C/C(=O)O ?
(A) 3%

(Q) And CN(C)CC/C=C1\c2ccccc2COc2ccc(CC(=O)O)cc21 ?
(A) -1%

(Q) And CN(C)CC/C=C1\c2ccccc2COc2ccc(CCO)cc21 ?
(A) 72%

(Q) And CN(C)CC/C=C1/c2ccccc2COc2ccc(C(=O)O)cc21 ?
(A) 1%

(Q) And CN(C)CC/C=C1\c2ccccc2COc2ccc(C(=O)O)cc21.O=C(O)/C=C/C(=O)O ?
(A) 5%

(Q) And CN(C)CC/C=C(/c1ccccc1)c1cccc(C(=O)O)c1 ?
(A) 4%

(Q) And CN1CCC(=C2c3ccccc3CC(=O)c3sccc32)CC1 ?
(A) 55%

(Q) And CN(C)CC/C=C1/c2ccccc2COc2cc(C(=O)O)ccc21 ?
(A) -1%

(Q) And O=C(O)c1ccc2c(c1)/C(=C\CCN1CCSCC1)c1ccccc1CO2 ?
(A) 27%

(Q) And CN(C)CC/C=C1\c2ccccc2COc2ccc(CCC(=O)O)cc21 ?
(A) 5%

(Q) And CN(C)CCC/C=C1\c2ccccc2COc2ccc(C(=O)O)cc21 ?
(A) 12%

(Q) And CN(C)C/C=C1\c2ccccc2COc2ccc(C(=O)O)cc21.O=C(O)/C=C/C(=O)O ?
(A) -2%

(Q) And CN(C)CC/C=C1/c2ccccc2COc2ccc(CCO)cc21 ?
(A) 80%

(Q) And CN(C)CC/C=C1/c2ccccc2COc2ccc(/C=C/C(=O)O)cc21.O=C(O)/C=C/C(=O)O ?
(A) -1%

(Q) And O=C(O)/C=C/C(=O)O.O=C(O)c1ccc2c(c1)/C(=C\CCN1CCCC1)c1ccccc1CO2 ?
(A) 3%
